Reported kon values follow for various binders
Target: T1, cyno EphA2 ectodomain (cyno, UniProt Q1KL86 25-537)
T1 construct: extracellular domain
T1 sequence (Q1KL86 25-537): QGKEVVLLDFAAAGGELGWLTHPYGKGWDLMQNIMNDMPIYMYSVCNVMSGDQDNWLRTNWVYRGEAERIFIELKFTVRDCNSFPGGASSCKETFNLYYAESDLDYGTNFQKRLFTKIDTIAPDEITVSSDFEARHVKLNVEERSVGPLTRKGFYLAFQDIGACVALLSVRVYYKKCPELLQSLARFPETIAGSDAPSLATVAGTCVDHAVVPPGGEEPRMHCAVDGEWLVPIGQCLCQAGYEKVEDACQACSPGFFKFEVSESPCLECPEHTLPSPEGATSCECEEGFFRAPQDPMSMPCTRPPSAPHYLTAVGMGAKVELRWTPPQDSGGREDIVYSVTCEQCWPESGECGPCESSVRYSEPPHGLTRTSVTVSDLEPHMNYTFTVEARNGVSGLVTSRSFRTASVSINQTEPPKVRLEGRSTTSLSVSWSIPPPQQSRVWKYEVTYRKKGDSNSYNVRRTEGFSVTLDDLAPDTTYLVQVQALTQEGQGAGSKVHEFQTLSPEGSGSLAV
Assay: SPR (Biacore 8k), Fab-capture, 37C, 1:1 model;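 also: Anti-EphA2 IgG captured via immobilized anti-Fab, soluble EphA2 ectodomain as analyte at six twofold dilutions from 50 nM, HBS-EP+ pH 7.6 running buffer, double reference subtraction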

Binder | kon
anti-EphA2 E152C S375C 1C1 (LC S93Q) hIgG1 (WT Heavy Chain) (antibody, V domains shown, also called DA-62-QP06) VH: EVQLLESGGGLVQPGGSLRLSCAASGFTFSHYMMAWVRQAPGKGLEWVSRIGPSGGPTHYADSVKGRFTISRDNSKNTLYLQMNSLRAEDTAVYYCAGYDSGYDYVAVAGPAEYFQHWGQGTLVTVSS VL: DIQMTQSPSSLSASVGDRVTITCRASQSISTWLAWYQQKPGKAPKLLIYKASNLHTGVPSRFSGSGSGTEFSLTISGLQPDDFATYYCQQYNQYSRTFGQGTKVEIKR | 1.24e+06 M⁻¹ s⁻¹
anti-EphA2 E152C S375C 1C1 (LC S93V) hIgG1 (WT Heavy Chain) (antibody, V domains shown, also called PA-62-QD06) VH: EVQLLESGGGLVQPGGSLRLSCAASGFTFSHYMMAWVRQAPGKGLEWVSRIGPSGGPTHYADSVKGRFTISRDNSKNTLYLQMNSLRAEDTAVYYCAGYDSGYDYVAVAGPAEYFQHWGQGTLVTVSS VL: DIQMTQSPSSLSASVGDRVTITCRASQSISTWLAWYQQKPGKAPKLLIYKASNLHTGVPSRFSGSGSGTEFSLTISGLQPDDFATYYCQQYNVYSRTFGQGTKVEIKR | 428000 M⁻¹ s⁻¹
anti-EphA2 E152C S375C 1C1 (LC S93A) hIgG1 (WT Heavy Chain) (antibody, V domains shown, also called HD-58-MP05) VH: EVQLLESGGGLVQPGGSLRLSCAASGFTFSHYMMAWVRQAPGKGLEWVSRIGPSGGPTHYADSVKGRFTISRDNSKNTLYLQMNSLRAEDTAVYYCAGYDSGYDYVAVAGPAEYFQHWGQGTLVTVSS VL: DIQMTQSPSSLSASVGDRVTITCRASQSISTWLAWYQQKPGKAPKLLIYKASNLHTGVPSRFSGSGSGTEFSLTISGLQPDDFATYYCQQYNAYSRTFGQGTKVEIKR | 697000 M⁻¹ s⁻¹
anti-EphA2 E152C S375C 1C1 (LC N92Q) hIgG1 (WT Heavy Chain) (antibody, V domains shown, also called 1C1 N92Q IgG; DE-54-AX20) VH: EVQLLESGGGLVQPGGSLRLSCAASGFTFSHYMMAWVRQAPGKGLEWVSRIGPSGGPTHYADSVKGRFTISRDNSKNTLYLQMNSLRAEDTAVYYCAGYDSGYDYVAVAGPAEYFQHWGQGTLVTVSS VL: DIQMTQSPSSLSASVGDRVTITCRASQSISTWLAWYQQKPGKAPKLLIYKASNLHTGVPSRFSGSGSGTEFSLTISGLQPDDFATYYCQQYQSYSRTFGQGTKVEIKR | 313000 M⁻¹ s⁻¹
anti-EphA2 E152C S375C 1C1 (LC S72T) hIgG1 (WT Heavy Chain) (antibody, V domains shown, also called 1C1 S72T IgG; FE-76-NO13) VH: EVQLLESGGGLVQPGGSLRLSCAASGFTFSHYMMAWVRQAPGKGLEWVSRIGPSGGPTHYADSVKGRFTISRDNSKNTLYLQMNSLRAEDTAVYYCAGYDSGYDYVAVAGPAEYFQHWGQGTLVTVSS VL: DIQMTQSPSSLSASVGDRVTITCRASQSISTWLAWYQQKPGKAPKLLIYKASNLHTGVPSRFSGSGSGTEFTLTISGLQPDDFATYYCQQYNSYSRTFGQGTKVEIKR | 737000 M⁻¹ s⁻¹
anti-EphA2 E152C S375C 1C1 (LC S10T_S72T_G77S) hIgG1 (WT Heavy Chain) (antibody, V domains shown, also called 3x germ) VH: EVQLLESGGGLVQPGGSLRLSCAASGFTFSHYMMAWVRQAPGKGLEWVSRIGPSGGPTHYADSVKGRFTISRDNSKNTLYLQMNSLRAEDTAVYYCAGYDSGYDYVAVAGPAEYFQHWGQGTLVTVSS VL: DIQMTQSPSTLSASVGDRVTITCRASQSISTWLAWYQQKPGKAPKLLIYKASNLHTGVPSRFSGSGSGTEFTLTISSLQPDDFATYYCQQYNSYSRTFGQGTKVEIKR | 886000 M⁻¹ s⁻¹
